# Protocol Notes: Kinetic aqueous solubility of the compound
# Format: physicochemical
# Measurement Setup: buffer; read-out: Kinetic_solubility
Property Name: solubility kinetic

{"Molecule": "CC1=C(C(=O)Nc2ccc(C(=O)N3CCOCC3)cc2)C(c2ccccc2Cl)N=C(Nc2nc3ccccc3o2)N1 (stereo not drawn)", "Property Name": "solubility kinetic", "Measured Value": "< 1 µg/mL"}
{"Molecule": "CCn1nc(C)c(CNC(=O)C2=C(C)NC(Nc3nc4ccc(F)c(N)c4o3)=NC2c2ccc(C)cc2Cl)c1F (stereo not drawn)", "Property Name": "solubility kinetic", "Measured Value": "1.53 µg/mL"}
{"Molecule": "CC1=C(C(=O)Nc2cc(C(=O)O)ccn2)C(c2ccc(C)cc2Cl)N=C(Nc2nc3ncccc3o2)N1 (stereo not drawn)", "Property Name": "solubility kinetic", "Measured Value": "> 51 µg/mL"}
{"Molecule": "CC1=C(C(=O)Nc2cc(C(=O)O)ccn2)C(c2ccccc2Cl)N=C(Nc2nc3c(Cl)cccc3o2)N1 (stereo not drawn)", "Property Name": "solubility kinetic", "Measured Value": "< 1 µg/mL"}
{"Molecule": "CC1=C(C(=O)Nc2cc(C(=O)O)ccn2)C(c2cccc(N)c2Cl)N=C(Nc2nc3ccc(F)cc3o2)N1 (stereo not drawn)", "Property Name": "solubility kinetic", "Measured Value": "> 79 µg/mL"}
{"Molecule": "COC(=O)Cc1cccc(NC(=O)C2=C(C)NC(Nc3nc4ccccc4o3)=NC2c2ccccc2Cl)c1 (stereo not drawn)", "Property Name": "solubility kinetic", "Measured Value": "< 1 µg/mL"}
{"Molecule": "CC1=C(C(=O)NCc2cnn(C)c2)C(c2ccc(Cl)cc2Cl)N=C(Nc2nc3cccc(N)c3o2)N1 (stereo not drawn)", "Property Name": "solubility kinetic", "Measured Value": "15.6 µg/mL"}
{"Molecule": "CNCCNC(=O)C1=C(C)NC(Nc2nc3ccc(F)cc3o2)=NC1c1ccccc1Cl (stereo not drawn)", "Property Name": "solubility kinetic", "Measured Value": "> 67 µg/mL"}

* * *

# Assayed Target: Galactokinase (Homo sapiens, UniProt P51570)
# Sequence (P51570 whole entry): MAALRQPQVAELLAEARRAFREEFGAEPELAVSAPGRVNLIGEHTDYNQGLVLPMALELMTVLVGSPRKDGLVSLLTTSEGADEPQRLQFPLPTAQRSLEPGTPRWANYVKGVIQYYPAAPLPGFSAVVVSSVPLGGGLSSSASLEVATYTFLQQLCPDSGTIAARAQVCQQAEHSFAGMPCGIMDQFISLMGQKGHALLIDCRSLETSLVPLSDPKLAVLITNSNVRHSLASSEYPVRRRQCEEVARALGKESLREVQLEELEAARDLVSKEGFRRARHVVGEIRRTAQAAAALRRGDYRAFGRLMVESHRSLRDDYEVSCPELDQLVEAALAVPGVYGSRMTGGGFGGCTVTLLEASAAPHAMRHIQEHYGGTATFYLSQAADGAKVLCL
# Protocol Notes: Inhibition of recombinant human GALK1 using ATP as substrate incubated for 1 hr and measured by Kinase-Glo assay
# Measurement Setup: read-out: IC50
pIC50: −log10 of the molar value.
Property Name: pIC50

{"Compound": "CCn1cc(C(C)NC(=O)C2=C(C)NC(Nc3nc4cccc(N)c4o3)=NC2c2ccc(C)cc2Cl)cn1 (stereo not given)", "Assayed Target": "Galactokinase (Homo sapiens, UniProt P51570)", "Property Name": "pIC50", "Measured Value": 7.30}
{"Compound": "CC1=C(C(=O)Nc2cc(C(=O)O)ccn2)[C@H](c2ccccc2Cl)N=C(Nc2nc3cccc(N)c3o2)N1", "Assayed Target": "Galactokinase (Homo sapiens, UniProt P51570)", "Property Name": "pIC50", "Measured Value": 7.07}
{"Compound": "COC(=O)c1ccnc(NC(=O)C2=C(C)NC(Nc3nc4cccc(N)c4o3)=NC2c2ccc(C)cc2Cl)c1 (stereo not given)", "Assayed Target": "Galactokinase (Homo sapiens, UniProt P51570)", "Property Name": "pIC50", "Measured Value": 5.65}
{"Compound": "CCOC(=O)c1ccc(NC(=O)C2=C(C)NC(Nc3nc4ccccc4o3)=NC2c2ccccc2Cl)cc1 (stereo not given)", "Assayed Target": "Galactokinase (Homo sapiens, UniProt P51570)", "Property Name": "pIC50", "Measured Value": 5.41}
{"Compound": "COCC1=C(C(=O)Nc2nncs2)C(c2ccccc2Cl)N=C(Nc2nc3ccccc3o2)N1 (stereo not given)", "Assayed Target": "Galactokinase (Homo sapiens, UniProt P51570)", "Property Name": "pIC50", "Measured Value": 4.86}

The measured values listed here are drawn from ChEMBL document CHEMBL5050861.
